The entries below pair molecules with IC50 values for Glutamate carboxypeptidase 2 (Homo sapiens), as found in several publications.
value-type: IC50 (nM)

Below are worked cases with known answers.
>>> value_reported("O=C(O)CC[C@H](NC(=O)N[C@@H](CCCCNC(=O)Nc1cccc(OCc2cn(CCF)nn2)c1)C(=O)O)C(=O)O")
36.5
>>> value_reported("O=C(O)CC[C@H](NC(=O)N[C@@H](CCCCNC(=O)Nc1ccc(OCc2cn(CCF)nn2)cc1)C(=O)O)C(=O)O")
21.3
>>> value_reported("O=C(O)CCC(NC(=O)NC(CCCCNC(=O)C(Cc1ccc2ccccc2c1)NC(=O)C1CCC(CNC(=O)C(CCCCNC(=S)Nc2ccc3c(c2)C(=O)OC32c3ccc(O)cc3Oc3cc(O)ccc32)NC(=O)CN2CCN(CC(=O)O)CCN(CC(=O)O)CCN(CC(=O)O)CC2)CC1)C(=O)O)C(=O)O (stereo not shown)")
4.83
>>> value_reported("O=C(O)CCC(NC(=O)NC(CCCCNC(=O)C(Cc1ccc2ccccc2c1)NC(=O)C1CCC(CNC(=O)C(CCCCNC(=O)CN2CCN(CC(=O)O)CCN(CC(=O)O)CCN(CC(=O)O)CC2)NC(=S)Nc2ccc3c(c2)C(=O)OC32c3ccc(O)cc3Oc3cc(O)ccc32)CC1)C(=O)O)C(=O)O (stereo not shown)")
4.64
>>> value_reported("N#C[C@@H]1CC(F)(F)CN1C(=O)CNC(=O)c1ccnc2ccc(OCCCC(=O)NCCCC[C@H](NC(=O)CN3CCN(CC(=O)O)CCN(CC(=O)O)CC3)C(=O)NCC3CCC(C(=O)N[C@H](Cc4ccc5ccccc5c4)C(=O)NCCCC[C@H](NC(=O)N[C@@H](CCC(=O)O)C(=O)O)C(=O)O)CC3)cc12 (stereo partly shown)")
33.7

(a) O=C(O)CC[C@H](NC(=O)N[C@@H](CCCCNC(=O)Nc1cccc(-c2cn(CCF)nn2)c1)C(=O)O)C(=O)O
(b) O=C(O)CC[C@H](NC(=O)N[C@@H](CCCCNC(=O)Nc1ccc(-c2cn(CCF)nn2)cc1)C(=O)O)C(=O)O
(c) NNc1ccc(C(=O)NC[C@H]2CC[C@H](C(=O)N[C@@H](Cc3c[nH]c4ccccc34)C(=O)NCCCC[C@H](NC(=O)N[C@@H](CCC(=O)O)C(=O)O)C(=O)O)CC2)cn1
Write the entries in order, lowest recorded IC50 first. Thanks in advance for listing the labels in the requested order.
b, a, c
(b: 3.2 nM, a: 7 nM, c: 79.5 nM)
